test: yeast display, Sf9 membrane polyspecificity reagent, FACS + sequencing; frameworks hold sequencing errors

seq	polyreactivity (PSR sort gate)
QVQLVESGGGLVQAGGSLRLSCAASGLTLTYYAMGWYRQAPGKERELVAAISRSGGSTHYADSVKGRFTISRDNAKNTVYLQMNSLKPEDTAVYYCNAQQGRYWSAKGYDYWGQGTQVTVSS	high polyreactivity
QVQLVESGGGLVQAGGSLRLSCAASGFIFIPYAKGWYRQAPGKERELVAAISVSDGTTYYADSVKGRFTISRDNAKNTVYFQMNSLKPEDTAVDYCAARRRAQQGTRDHDYWGQGTQVTVSS	high polyreactivity

* * *

test: yeast display, Sf9 membrane polyspecificity reagent, FACS + sequencing; frameworks hold sequencing errors
measurement.name: polyreactivity (PSR sort gate)

seq	experimental.result
QVQLVESGGGLVQAGGSLRLSCAASGRIFGSNAMGWYRQAPGKERELVAAISWRGASTYYADSVKGRFTISRDNAKNTVYLQMNSLIPEDTAVYYCFLRGRATQWDFGYWGQGTQVTVSS	high polyreactivity
QVQLVESGGGLVQAGGSLRLSCAASGSTFFIYAMGWYRQAPGKERELVAAITWRGGTTYYADSVKGRFTISRDNAKNTVYLQMNSLKPEDTAVYYCNADPVDYANIVYYYDYNYWGQGTQVTVSS	low polyreactivity
QVQLVESGGGIVQAGRSLRLRCAASGSTFTPYGMGWYRQAPGKESELVAAITVSGGRTYYADSVKGRFTISRDNANNTVSLVMNSLKPEDTAVYYCAAVYLRADGDYDYWGQGTQVNVSS	low polyreactivity
QVQLVESGGGLVQAGGSLRLSCAASGRIFHGNAMGWYRPAPGKERELVAAITSGGRTFYADSVKGRFTISRDNAKNTVYLQMNRLKPEDTAVYYCNAPSIAGYAEYNSHDYWGQGTQVTVSS	high polyreactivity

Next item in the queue.
Which value of polyreactivity (PSR sort gate) has been reported for QVQLVESGGGLVQAGGSLRLSCAASGSTFWFYAMGWYRQAPGKERELVAAITRGGSTYYADSVKGRFSISRDNAKNTVYLQMNSLKPEDTAVYYCAAEVGWSRYKWLEYWGQGTQVTVSS in the records? low polyreactivity

* * *

assay: yeast display, Sf9 membrane polyspecificity reagent, FACS + sequencing; frameworks hold sequencing errors

seq	polyreactivity (PSR sort gate)
QVQLVESWGGLVQAGGSLRLSCAASGSILYYYVMGWYRQAPGKERELVAAINSGGNTNYADSVKGRFTISRDNAKNTVYLQMNSLKTVDTAVYYCATASGDGVRTDFGNEYDYWGQGTQVNVSS	low polyreactivity
QVQRVESGGGLVQAGGSLRLSSAASGRIFWDNAMGGYRQEPGKERELVAAISDSVVITYYADSVKGRFTITRDNAKNTVYLQMNSLKPEDTAVYYCNVTGGPYDFTRWSEFDHWGQGTQETVSS	low polyreactivity

* * *

assay: yeast display, Sf9 membrane polyspecificity reagent, FACS + sequencing; frameworks hold sequencing errors

seq	polyreactivity (PSR sort gate)
QVQLVESGVGLVQAGASLRLSCAASGFIFRKNAMGWYRQAPGKERELVAAISGSGGRTYYADSVKGRFTISRDNAKNTVYLQMNSVKPEDNAVYYCNADYLSRRYSFDYWGQGTQVTVSS	high polyreactivity
QDQLVESGGGLVQAGGSLRLSCAASGLIFDSYAMGWYRQAPGKERELVAAITYTGGSTYYADSVKGRFTISRDNAKNTVYLQMNSLKPEDTAVYYCAADSPGPWRYDYWGQGTQVTVSS	high polyreactivity
QVQLVESGGGLVQAGGSLRLSCAASGITFDHYAMGWYRPAPGKERELVATIRGSGTSTYYADSVKGRFTISRDNAKNTVYLQMHSLKPEDTAVYYCAARGRYRQFNYWGQGTQVTVSS	high polyreactivity
QVHLVESGGGLVQAGGSLRLSCAASGSIFTRYVMGWYRQAPGKERELVAAISGRGSSTYYADSVKGRFKISRDYAKNTVYLQMNSLKPEDTAVYYCAAEIVVFYSEGQRNTFYYWGQGTQVTVSS	high polyreactivity

* * *

assay: yeast display, Sf9 membrane polyspecificity reagent, FACS + sequencing; frameworks hold sequencing errors
measurement.name: polyreactivity (PSR sort gate)

Some sequences with recorded polyreactivity (PSR sort gate):
seq	experimental.result
QVQLVESGGGLVQAGGSLRLSCAASGSTFQSNAMGWYRQAPGKERELVAAISSSAGTTFYADSVKGRFTISRDNAKNTVYLQMNSLKPEDTAVYYCAKKDFYFAPSPGYYRSRDYWGQGTQVTVSS	low polyreactivity
QVQLVESGGGLVQAGGSLSLICAASGSTFNLYPMGGYRKAPGKERELVAAISRGGSTNYADSVKGRFTISRDNAKNTVYLQMNSLIPEDTAVYYCAARSWYDRYPYYSWGQGTQLTVSS	high polyreactivity
QVQLVESGGGLVQAGGSLLLRCAASGRTFKNYAKGWSRQAPGKERELVAAISSGGGRTKYADSEKGRFTISRDNAKNSVYLQLNSLKPDDTAVYYCAAAFYYRDDYWGQGSQVTVSS	high polyreactivity
QDQLVESGGGLVQAGGSLRLSCAASGRTFLRYTMGWYRQAPGTETELVADITNGGTRTYYADSVKGRFTFSRDYAKNTVYLQMNRLKPEDTAVYYCGARVRYTANYDYWGQGTQVTVSS	high polyreactivity
QVQLVESGGGLVQAGGSLRLSCAASGSIFYEYTMGWYRQAPGKERELVAVITSGGTTNYADSVKGRFTISRDNAKNTVYLQMNSLKPEYTAVYYCAAESKNKYDYWGQGTQVTVSS	high polyreactivity

Could you tell me which polyreactivity (PSR sort gate) is on file for QVQLVESGGGLVQAGGSLRLSCAASGRIFPTNAMGWYRQAPGKERELVASIDSGGSTKYADSVKGRFTISRDNAKNTVYLLMNSLKPEDTAVYYRALQVLNYDYWGQGTQVTVSS ? low polyreactivity

Would you mind doing QVHLVESGGGLVQAGGSLRLSCAASGIIFGRFTMGWYRQAPGKERELVAAITSSGITYYADSLKGRFTISRDNAKNTVYLQMNSLKPEDTAVSYCNADYSIPGYYWPFDYWGQGTQVTVSS as well? low polyreactivity

Check QVQLVESGGGLVQAGGSLRLSCAASGSIFSQYVMGWYRQAPGNERELVAAIVWSSGSTYYADSVKGRFTMSRDNAKNTVYLQMNSLKPEDTAVYYCAARTKAFKPGYGYWGQGTQVTVSS too. low polyreactivity

Quick one: QVQLVESGGGLVQAGGSLRLSCAASGRIFRYYAMGWYRQAPGIERELVAAISYRGGSTYYADSVKGRFTISRDNAKNTVYLQMNSLKPEDTAVYYCNIVPRIDTRYDYWGQGTQVTVSS high polyreactivity

QVQLVESGGGLVQAGGSLRLSCAASGFIFKWYAMGWYRQAPGKERELVAAISTSGGSTYYADSVKGRFTISRDNAKNTVYLQMNSLKPEDTAVYYCAVLVGRLVWSYNHWGQGTQVTVSS ? high polyreactivity

Subsequent entry: QVQLVESGGGLVQAGGSLRFSCAASGSTFIGYDMGWYRQEPGKERELVAAISYSDGTYYAESVKGRFTISRDNAKNTVYLQMNSLNPEDTAVYYCAADSLYYRYDYWGQGTQVTVSS low polyreactivity

* * *

test: yeast display, Sf9 membrane polyspecificity reagent, FACS + sequencing; frameworks hold sequencing errors
measurement.name: polyreactivity (PSR sort gate)

seq	experimental.result
QVQLVESGGGLVQAGGSLRLSCAASGFTFGYNAMGRYRQAPGKERELVAAITSGGSTNYADSVKGRFTISRDNAKNTVYLQMNSLKPEDNAVYYCATGVRPWRKKPVEFYHWGQGTQVTVSS	low polyreactivity
QVQLVESGGGLVQAGGSLRLSCAASGRIFSYYVMGWSRQAPGKERELVAAISYRGGGTYYADSVKGRFTISRDNAKNTVYLQMNSLKPEDTAVYYCNADTYSNTYRAYDYWGQGTQVTVSS	low polyreactivity
QVQLVESGGGLVQAGGSLRLSCAASGRTFGTYAIGWYRQAPGKERELVAAITGSGDRTYYADSVKGRFTISRDNAKNTVYLQMNSLKPEDTAVYYCAAYSDRSYGFWGQGTQVTVSS	low polyreactivity
QVQLVESGGGLVQAGGSLRLSSAAYGSIFTYNAMGWYRQAPGKERELVDTISWRGGSTYYADSVKGRFTISRDNAKNTVYLQMNSLKPEDTAVYYCDKSWRGRYDYWGQGTQVTVSS	high polyreactivity

As a next step, examine the sequence that follows.
Quick one: polyreactivity (PSR sort gate) for QVQLVESGGGLVQAGGSLRLSCAASGRIFFRNAMGWYRQAPGKERELVAAISKSGTRTYYADSVKGRFTISRDNAKNTVYLQMHSLKPEDTAVYYCNALLRDCGTYAGDDYWGQGTQVTVSS ? high polyreactivity

* * *

assay: yeast display, Sf9 membrane polyspecificity reagent, FACS + sequencing; frameworks hold sequencing errors

seq	polyreactivity (PSR sort gate)
QVQLVESGGGLVQAGGSLRLNCAASGSIFDHYAMGWYRQAPGKERELVAAINIRTGYTYYADSVKGRFTISRDNAKNTVYLQMNSLKPEDTAVYYCNRVVRGFVRHLDYWGQGTQVTVSS	low polyreactivity
QVQLVESGGGLVQAGGSLRLSCAASGRTFVWNAMGWYRQAPGKERELVAAITSGGSTNYADSVKGRFTISRDNAKNTVYLQMNSLKPEDTAVYYCAADWQYSPRMDYWGQGTQVTVSS	low polyreactivity

Recorded values, source the nanobody polyreactivity screen of Harvey et al. (2022).
